experimental_system: T1, Recombinant human MASP1 enzyme (fragment corresponding to amino acids 297-699, C-terminal His Tag) (human, UniProt P48740 297-699)
T1 sequence: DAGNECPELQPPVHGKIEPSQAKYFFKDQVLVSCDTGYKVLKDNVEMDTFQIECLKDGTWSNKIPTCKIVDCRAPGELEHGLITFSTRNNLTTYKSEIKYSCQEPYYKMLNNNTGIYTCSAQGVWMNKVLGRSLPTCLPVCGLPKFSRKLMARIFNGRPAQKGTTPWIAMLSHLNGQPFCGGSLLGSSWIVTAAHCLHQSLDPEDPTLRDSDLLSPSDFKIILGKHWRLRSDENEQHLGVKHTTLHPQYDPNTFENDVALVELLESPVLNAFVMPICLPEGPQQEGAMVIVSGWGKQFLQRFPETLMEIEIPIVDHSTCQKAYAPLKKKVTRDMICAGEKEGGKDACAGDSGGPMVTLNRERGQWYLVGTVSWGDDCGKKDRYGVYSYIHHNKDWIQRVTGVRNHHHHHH
assay_remarks: cell-based or functional assay
Bridge positions count the residues as written; N and C are the ends. Square brackets hold non-standard residues; d marks the D form. Ends that are not written are not given here. Oic = O=C(O)[C@@H]1C[C@@H]2CCCC[C@@H]2N1; NMeI = CC[C@H](C)[C@H](NC)C(=O)O; tBuAla = CC(C)(C)C[C@H](N)C(=O)O; aThr = C[C@H](O)[C@H](N)C(=O)O; Pen = CC(C)(S)[C@H](N)C(=O)O; NMeC = CN[C@@H](CS)C(=O)O; Sar = CNCC(=O)O
Values of human MASP1 IC50 greater than or equal to 10 nM map to T; values below map to F.

Confirm if human MASP1 IC50 reported for the binder [Sar]GICSRS[tBuAla]PPI[Pen]IPD-NH2 (disulfide 4-12; N-terminus assumed; SMILES CC[C@H](C)[C@H](NC(=O)CNC(=O)CNC)C(=O)N[C@H]1CSSC(C)(C)[C@@H](C(=O)N[C@H](C(=O)N2CCC[C@H]2C(=O)N[C@@H](CC(=O)O)C(N)=O)[C@@H](C)CC)NC(=O)[C@H]([C@@H](C)CC)NC(=O)[C@@H]2CCCN2C(=O)[C@@H]2CCCN2C(=O)[C@H](CC(C)(C)C)NC(=O)[C@H](CO)NC(=O)[C@H](CCCNC(=N)N)NC(=O)[C@H](CO)NC1=O) [((N-Me)G)-GIC+SRS-((tBu)A)-PPI-(Pen)+IPD-NH2] is 10 nM or above.
F

Confirm if human MASP1 IC50 reported for the binder FICSRSLP[Oic]I[Pen]IP-NH2 (disulfide 3-11; N-terminus assumed; SMILES CC[C@H](C)[C@H](NC(=O)[C@@H](N)Cc1ccccc1)C(=O)N[C@H]1CSSC(C)(C)[C@@H](C(=O)N[C@H](C(=O)N2CCC[C@H]2C(N)=O)[C@@H](C)CC)NC(=O)[C@H]([C@@H](C)CC)NC(=O)[C@@H]2C[C@@H]3CCCC[C@@H]3N2C(=O)[C@@H]2CCCN2C(=O)[C@H](CC(C)C)NC(=O)[C@H](CO)NC(=O)[C@H](CCCNC(=N)N)NC(=O)[C@H](CO)NC1=O) [FIC+SRSLP-(Oic)-I-(Pen)+IP-NH2] is 10 nM or above.
T

Confirm if human MASP1 IC50 reported for the binder AICSRSLP[Oic]I[NMeC]I-NH2 (disulfide 3-11; N-terminus assumed; SMILES CC[C@H](C)[C@H](NC(=O)[C@@H]1CSSC[C@H](NC(=O)[C@@H](NC(=O)[C@H](C)N)[C@@H](C)CC)C(=O)N[C@@H](CO)C(=O)N[C@@H](CCCNC(=N)N)C(=O)N[C@@H](CO)C(=O)N[C@@H](CC(C)C)C(=O)N2CCC[C@H]2C(=O)N2[C@@H](C[C@@H]3CCCC[C@@H]32)C(=O)N[C@@H]([C@@H](C)CC)C(=O)N1C)C(N)=O) [AIC+SRSLP-(Oic)-I-((N-Me)C)+I-NH2] is 10 nM or above.
F

Confirm if human MASP1 IC50 reported for the binder G[NMeI]CSRSLPPICIP[dD]-OH (disulfide 3-11; N-terminus assumed; SMILES CC[C@H](C)[C@@H]1NC(=O)[C@@H]2CCCN2C(=O)[C@@H]2CCCN2C(=O)[C@H](CC(C)C)NC(=O)[C@H](CO)NC(=O)[C@H](CCCNC(=N)N)NC(=O)[C@H](CO)NC(=O)[C@@H](NC(=O)[C@H]([C@@H](C)CC)N(C)C(=O)CN)CSSC[C@@H](C(=O)N[C@H](C(=O)N2CCC[C@H]2C(=O)N[C@H](CC(=O)O)C(=O)O)[C@@H](C)CC)NC1=O) [G-((N-Me)I)-C+SRSLPPIC+IPd-OH] is 10 nM or above.
T

Confirm if human MASP1 IC50 reported for the binder AICSRSLP[Oic]ICI-OH (disulfide 3-11; N-terminus assumed; SMILES CC[C@H](C)[C@H](NC(=O)[C@@H]1CSSC[C@H](NC(=O)[C@@H](NC(=O)[C@H](C)N)[C@@H](C)CC)C(=O)N[C@@H](CO)C(=O)N[C@@H](CCCNC(=N)N)C(=O)N[C@@H](CO)C(=O)N[C@@H](CC(C)C)C(=O)N2CCC[C@H]2C(=O)N2[C@@H](C[C@@H]3CCCC[C@@H]32)C(=O)N[C@@H]([C@@H](C)CC)C(=O)N1)C(=O)O) [AIC+SRSLP-(Oic)-IC+I-OH] is 10 nM or above.
T

Confirm if human MASP1 IC50 reported for the binder AICSR[aThr]LPPICIPD-NH2 (disulfide 3-11; N-terminus assumed; SMILES CC[C@H](C)[C@H](NC(=O)[C@H](C)N)C(=O)N[C@H]1CSSC[C@@H](C(=O)N[C@H](C(=O)N2CCC[C@H]2C(=O)N[C@@H](CC(=O)O)C(N)=O)[C@@H](C)CC)NC(=O)[C@H]([C@@H](C)CC)NC(=O)[C@@H]2CCCN2C(=O)[C@@H]2CCCN2C(=O)[C@H](CC(C)C)NC(=O)[C@H]([C@H](C)O)NC(=O)[C@H](CCCNC(=N)N)NC(=O)[C@H](CO)NC1=O) [AIC+SR-(allo-T)-LPPIC+IPD-NH2] is 10 nM or above.
T

Confirm if human MASP1 IC50 reported for the binder [3‑Amino‑2,2‑dimethylpropionic acid]ICSRS[tBuAla]PPI[Pen]IPD-NH2 (disulfide 3-11) [(3-Amino-2,2-dimethylpropionic acid)-IC+SRS-((tBu)A)-PPI-(Pen)+IPD-NH2] is 10 nM or above.
F

Confirm if human MASP1 IC50 reported for the binder AICSRS[tBuAla]P[Oic]I[NMeC]IPD-NH2 (disulfide 3-11; N-terminus assumed; SMILES CC[C@H](C)[C@H](NC(=O)[C@H](C)N)C(=O)N[C@H]1CSSC[C@@H](C(=O)N[C@H](C(=O)N2CCC[C@H]2C(=O)N[C@@H](CC(=O)O)C(N)=O)[C@@H](C)CC)N(C)C(=O)[C@H]([C@@H](C)CC)NC(=O)[C@@H]2C[C@@H]3CCCC[C@@H]3N2C(=O)[C@@H]2CCCN2C(=O)[C@H](CC(C)(C)C)NC(=O)[C@H](CO)NC(=O)[C@H](CCCNC(=N)N)NC(=O)[C@H](CO)NC1=O) [AIC+SRS-((tBu)A)-P-(Oic)-I-((N-Me)C)+IPD-NH2] is 10 nM or above.
T

Where these numbers come from: patent US20210246166A1
